# Test system: Caco-2
# measurement.description: cell viability relative to DMSO; higher = less toxic
# experimental.parameters: 72 h; 1 nM
endpoint.name: cell viability (%)
Number only, in %; omit the unit.

C=CC(=O)Nc1cccc(Oc2nc(Nc3ccc(N4CCN(C)CC4)cc3)nc3ccsc23)c1
99.2
NC(=O)NC1NC(=O)NC1=O (configuration not stated)
102
CCc1ccc2c(-c3cccc(Cl)c3)nc(=O)n(CC)c2n1
104

Which value of cell viability has been reported for Nc1c2ccccc2nc2ccccc12 in the records?
103

Now try CCCCCCN(CCCCCC)C(=O)Cc1c(-c2ccc(Cl)cc2)[nH]c2ccc(Cl)cc12 .
101

# repeat for Cc1nc(Nc2n[nH]c3c2CN(C(=O)N[C@H](CN(C)C)c2ccccc2)C3(C)C)c2sccc2n1
98.9

Further, for CCO/N=C(\C(=O)N[C@@H]1C(=O)N2C(C(=O)[O-])=C(Sc3nc(-c4cc[n+](C)cc4)cs3)CS[C@H]12)c1nsc(NP(=O)(O)O)n1 ?
94.2

====

cell viability overview
# Tested on: Calu-3
# measurement.description: cell viability relative to DMSO; higher = less toxic
# experimental.parameters: 72 h; 1000 nM
Numbers only; they are read as %.

Worked set:
NCC1CC(=O)N(Cc2ccccc2)C1 (centres undefined) [nebracetam]
94.4
O=C(CCCCCN1C(=O)c2cccc3cccc(c23)C1=O)NO [scriptaid]
73.7
O=C1Cc2c([nH]c3ccc(Br)cc23)-c2ccccc2N1 [kenpaullone]
113

What cell viability value was documented for this molecule, CC(C)NCC(O)c1cc(O)cc(O)c1 (centres undefined) [metaproterenol] ?
108

====

Measured relative viability EC50, listed per entry for reference.
# System: Calu-3
# measurement.description: relative viability EC50 (midpoint between 100% and the lowest measured viability); higher = less toxic
# experimental.parameters: 72 h

CCc1c(C(=O)C(N)=O)c2c(OCC(=O)O)cccc2n1Cc1ccccc1
> 10 µM
Nc1n[nH]c2nnc(-c3c(-c4ccccc4)nn4ccccc34)cc12
> 10 µM

# ---- query compound ----
Dear colleague, I am looking for the recorded relative viability EC50 of the following compound: CCC(CC)(NC(=O)C(C)C)C(=O)N[C@@H](CCCNC(=N)N)C(=O)NC1(C(=O)NC(c2ccc(F)cc2)c2ccc(F)cc2)CCCC1
> 10 µM

====

# Test system: U2OS
# measurement.description: cell viability relative to DMSO; higher = less toxic
# experimental.parameters: 72 h; 1000 nM
Reported values of cell viability for individual entries
Field format: number, assumed %, no unit text.

Example results:
CCCCCCN(CCCCCC)C(=O)Cc1c(-c2ccc(Cl)cc2)[nH]c2ccc(Cl)cc12 [FGIN-1-43]
104
Cc1nnc(-c2ccc3occ(-c4ccc([S+](C)[O-])cc4)c3c2)o1 (stereo unspecified) [TCS2002]
99.3

For the next question, use this molecule.
Quick check: cell viability of C[C@H]1O[C@@H](Oc2c(-c3cc(O)c(O)c(O)c3)oc3cc(O)cc(O)c3c2=O)[C@@H](O)[C@@H](O)[C@@H]1O [myricitrin] ?
99.1

====

Items are presented alongside their recorded cell viability.
# Test system: Calu-3
# measurement.description: cell viability relative to DMSO; higher = less toxic
# experimental.parameters: 72 h; 10000 nM
Return type: number; implicit unit %.

Consider the reported cell viability for these molecules:
O=C1Nc2ccc(I)cc2C1=Cc1cc(Br)c(O)c(Br)c1
114
C=CCNC(=O)c1cc([N+](=O)[O-])cc2c(=O)[nH]c(Nc3ccc(Cl)c(Cl)c3)nc12
94
CCCN(CCC)C1Cc2cc(OC)c(OC)cc2C1
108
Nc1ccc(S(=O)(=O)NC(=O)c2ccccc2)cc1 [sulfabenzamide]
106

So what does the record say about cell viability for O=C(NO)C1(CS(=O)(=O)c2ccc(Oc3ccc(Cl)cc3)cc2)CCOCC1 ?
98.2

Another: CC(=O)O[C@H]1C[C@@]2(C)[C@@H](C[C@@H](O)[C@H]3[C@@]4(C)CC[C@@H](O)[C@@H](C)[C@@H]4CC[C@@]32C)/C1=C(\CCC=C(C)C)C(=O)O
86.1

One more molecule: CCN(CCCOc1ccc2c(Nc3cc(CC(=O)Nc4cccc(F)c4)[nH]n3)ncnc2c1)CCOP(=O)(O)O
91.3

====

drug sensitivity score listing for selected molecules.
# Test system: Vero E6
# measurement.description: drug sensitivity score (DSS) for viability; higher = more toxic; extreme values may be limits of the assay
# experimental.parameters: 72 h

Some molecules with recorded drug sensitivity score:
CNCCC=C1c2ccccc2CCc2ccccc21
1.6
CCC(CC)(NC(=O)C(C)C)C(=O)N[C@@H](CCCNC(=N)N)C(=O)NC1(C(=O)NC(c2ccc(F)cc2)c2ccc(F)cc2)CCCC1
0
CC(C)(C)c1[nH]cnc1/C=c1\[nH]c(=O)/c(=C/c2ccccc2)[nH]c1=O
23.9
CC(C)Oc1cccc(CC(=O)N2CCC[C@](CC[N+]34CCC(c5ccccc5)(CC3)CC4)(c3ccc(Cl)c(Cl)c3)C2)c1
0
CCO/N=C(\C(=O)N[C@@H]1C(=O)N2C(C(=O)[O-])=C(Sc3nc(-c4cc[n+](C)cc4)cs3)CS[C@H]12)c1nsc(NP(=O)(O)O)n1
0

drug sensitivity score lookup needed for OC[C@H]1O[C@H](O[C@]2(CCl)O[C@H](CCl)[C@@H](O)[C@@H]2O)[C@H](O)[C@@H](O)[C@H]1Cl , thanks.
0

Here is the next molecule: NC(=O)N1CCC(CC(=O)N2CCC([C@H]3c4ncc(Br)cc4CCc4cc(Cl)cc(Br)c43)CC2)CC1
0

Further, for C[N+]12CCC(CC1)C(OC(=O)C(O)(c1ccccc1)c1ccccc1)C2 (stereo unspecified) ?
0

Now consider CC(C)Cc1ccc(C(C)C(=O)NO)cc1 (stereo unspecified) and answer again.
0

And the next one, CC(C)=CCC[C@](C)(O[C@@H]1O[C@H](CO)[C@@H](O)[C@H](O)[C@H]1O)[C@H]1CC[C@]2(C)[C@@H]1[C@H](O)C[C@@H]1[C@@]3(C)CC[C@H](O[C@@H]4O[C@H](CO)[C@@H](O)[C@H](O)[C@H]4O[C@@H]4O[C@H](CO)[C@@H](O)[C@H](O)[C@H]4O)C(C)(C)[C@@H]3CC[C@]12C [ginsenoside-RD] ?
0

Query O=C(Oc1ccc([N+](=O)[O-])cc1)N1CCC(C(O)(c2ccc3c(c2)OCO3)c2ccc3c(c2)OCO3)CC1 next
0

Another molecule: CN1CCN(c2ccc(-c3cccc(CN4CCOCC4)c3)cc2NC(=O)c2c[nH]c(=O)cc2C(F)(F)F)CC1
0

Repeat with N=C(N)c1ccc(N2CCN(C3CCN(CC(=O)O)CC3)CC2)cc1
0

How about this molecule: CS(=O)(=O)c1ccc(-c2nnc(/C=C/c3nnc(-c4ccc(C#N)cc4)o3)n2-c2ccccc2Cl)nc1
7.5

Now try Clc1ccc(N2CCN(Cc3c[nH]c4ncccc34)CC2)cc1 .
0

====

# Test system: Calu-3
# measurement.description: cell viability relative to DMSO; higher = less toxic
# experimental.parameters: 72 h; 10000 nM
endpoint.name: cell viability (%)
Numeric only. Scale: %

Field: example entries. Status: answers known.
Nc1nc2c(ncn2COCCO)c(=O)[nH]1
119
CC(C)(C)NCC(O)COc1cccc2c1CCC(=O)N2 (stereo not drawn)
104

// below: cell viability requested for another compound
For C[Se]C[C@H](N)C(=O)O , what is its reported cell viability?
96.4

====

# Test system: Vero E6
# measurement.description: cell viability relative to DMSO; higher = less toxic
# experimental.parameters: 72 h; 100 nM
endpoint.name: cell viability

Cc1cc(Nc2ccc(NC(=O)c3ccc(Nc4ccnc5ccccc45)cc3)cc2)nc(N)n1 [SGI-1027]
94.7%

// fetch Vero E6 cell viability for COc1ccc(OC)c2c(=S)c3ccccc3[nH]c12
102%

Quick one: CCC(CC)(NC(=O)C(C)C)C(=O)N[C@@H](CCCNC(=N)N)C(=O)NC1(C(=O)NC(c2ccc(F)cc2)c2ccc(F)cc2)CCCC1 [MM-102]
97.3%

How about O=C(Nc1ccc(S(=O)(=O)C(F)(F)F)cc1)C1=CCN(c2ncccc2C(F)(F)F)CC1 ?
91.3%

What do you have for CC(C)(C)CC(C)(C)c1ccc(O)c(Cc2ccc(Cl)cc2Cl)c1 [clofoctol] ?
102%

Now consider O=C(OCC(COC(=O)c1cccnc1)(COC(=O)c1cccnc1)COC(=O)c1cccnc1)c1cccnc1 [niceritrol] .
96.8%

====

# System: U2OS
# measurement.description: cell viability relative to DMSO; higher = less toxic
# experimental.parameters: 72 h; 1000 nM
Measured cell viability, listed per entry for reference.
Report as a plain number; the unit % is understood.

Fc1cc(F)c2c(c1)[C@H]1C=CC[C@H]1C(c1cccnc1)N2 (stereo partly drawn) [Golgicide A]
105

Now, please, on to the next molecule.
What value of cell viability has been reported for the following molecule? CC(C)N(CCCNC(=O)Nc1ccc(C(C)(C)C)cc1)C[C@H]1O[C@@H](n2cc(Br)c3c(N)ncnc32)[C@H](O)[C@@H]1O
112
